biological target: UniProt:P98170; assay: Immunoblotting (western blot) quantification of XIAP levels in MM.1S cells; conditions: MM1.S, 16 h, read-out: %remaining protein XIAP

chemicalString: CN[C@@H](C)C(=O)N[C@H](C(=O)N1C[C@@H](Oc2cccc(OCCCCCCCCOc3cc(-c4scnc4C)ccc3CNC(=O)[C@@H]3C[C@@H](O)CN3C(=O)[C@H](C(C)C)N3Cc4ccccc4C3=O)c2)C[C@H]1C(=O)N[C@@H]1CCCc2ccccc21)C1CCCCC1
u: %
remaining activity at 0.1 µM: 5
--
chemicalString: CN[C@@H](C)C(=O)N[C@H](C(=O)N1C[C@@H](Oc2cccc(OCCCCCCOCCCCCCOCCCCCCOc3cc(-c4scnc4C)ccc3CNC(=O)[C@@H]3C[C@@H](O)CN3C(=O)[C@H](C(C)C)N3Cc4ccccc4C3=O)c2)C[C@H]1C(=O)N[C@@H]1CCCc2ccccc21)C1CCCCC1
u: %
remaining activity at 0.1 µM: 34
--
chemicalString: CN[C@@H](C)C(=O)N[C@H](C(=O)N1C[C@@H](Oc2cccc(OCCCCCCOCCCCCCOCCOc3cc(-c4scnc4C)ccc3CNC(=O)[C@@H]3C[C@@H](O)CN3C(=O)[C@H](C(C)C)N3Cc4ccccc4C3=O)c2)C[C@H]1C(=O)N[C@@H]1CCCc2ccccc21)C1CCCCC1
u: %
remaining activity at 0.1 µM: 1
--
chemicalString: CN[C@@H](C)C(=O)N[C@H](C(=O)N1C[C@@H](Oc2cccc(OCCCCCCOCCCCCOCCCCC(=O)N[C@H](C(=O)N3C[C@H](O)C[C@H]3C(=O)NCc3ccc(-c4scnc4C)cc3)C(C)(C)C)c2)C[C@H]1C(=O)N[C@@H]1CCCc2ccccc21)C1CCCCC1
u: %
remaining activity at 0.1 µM: 3

* * *

remaining activity at 0.1 µM values for the molecules below.
target: XIAP (Homo sapiens); assay: Immunoblotting (western blot) quantification of XIAP levels in MM.1S cells; conditions: MM1.S, 16 h, read-out: %remaining protein XIAP
Sequence (P98170 whole entry): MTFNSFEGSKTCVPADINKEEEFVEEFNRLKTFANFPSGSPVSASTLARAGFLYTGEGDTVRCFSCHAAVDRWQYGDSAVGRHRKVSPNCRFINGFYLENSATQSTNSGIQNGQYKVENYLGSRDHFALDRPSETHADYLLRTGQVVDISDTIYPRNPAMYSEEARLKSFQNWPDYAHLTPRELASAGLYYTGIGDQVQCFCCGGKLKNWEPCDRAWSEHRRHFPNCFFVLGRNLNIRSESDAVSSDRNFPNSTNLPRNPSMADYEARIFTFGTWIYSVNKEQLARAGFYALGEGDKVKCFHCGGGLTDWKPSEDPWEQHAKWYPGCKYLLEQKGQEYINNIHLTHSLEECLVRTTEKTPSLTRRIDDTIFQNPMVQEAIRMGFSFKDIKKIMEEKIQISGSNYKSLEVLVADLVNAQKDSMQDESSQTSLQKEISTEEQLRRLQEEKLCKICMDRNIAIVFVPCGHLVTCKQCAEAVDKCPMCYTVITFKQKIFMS

molecule: CN[C@@H](C)C(=O)N[C@H](C(=O)N1C[C@@H](Oc2cccc(OCCCCCOc3cc(-c4scnc4C)ccc3CNC(=O)[C@@H]3C[C@@H](O)CN3C(=O)[C@H](C(C)C)N3Cc4ccccc4C3=O)c2)C[C@H]1C(=O)N[C@@H]1CCCc2ccccc21)C1CCCCC1 [PROTAC 12]
u: %
remaining activity at 0.1 µM: 5
--
molecule: CN[C@@H](C)C(=O)N[C@H](C(=O)N1C[C@@H](Oc2cccc(OCCCCOCCCCOc3cc(-c4scnc4C)ccc3CNC(=O)[C@@H]3C[C@@H](O)CN3C(=O)[C@H](C(C)C)N3Cc4ccccc4C3=O)c2)C[C@H]1C(=O)N[C@@H]1CCCc2ccccc21)C1CCCCC1 [PROTAC 14]
u: %
remaining activity at 0.1 µM: 3
--
molecule: CN[C@@H](C)C(=O)N[C@H](C(=O)N1C[C@@H](Oc2cccc(OCCCCCCOCCCCCCOCC(=O)N[C@H](C(=O)N3C[C@H](O)C[C@H]3C(=O)NCc3ccc(-c4scnc4C)cc3)C(C)(C)C)c2)C[C@H]1C(=O)N[C@@H]1CCCc2ccccc21)C1CCCCC1 [PROTAC 6]
u: %
remaining activity at 0.1 µM: 2
--
molecule: CN[C@@H](C)C(=O)N[C@H](C(=O)N1C[C@@H](Oc2cccc(OCCOCCOCCOc3cc(-c4scnc4C)ccc3CNC(=O)[C@@H]3C[C@@H](O)CN3C(=O)[C@H](C(C)C)N3Cc4ccccc4C3=O)c2)C[C@H]1C(=O)N[C@@H]1CCCc2ccccc21)C1CCCCC1 [PROTAC 15]
u: %
remaining activity at 0.1 µM: 3
